# Tested on: HL-60
# assay_protocol: NCI tumour cell line growth inhibition, 48 h
Activity calls are given as the source filed them. Rule as the data show it: active = GI50 up to about 1.1 µM and inactive = higher.
Possible outcomes: 1 for active, 0 for inactive

compound: O=C(NCCCl)Nc1cccnc1
measurement_target: HL-60
qualitative_label: 0
//
compound: O=C(N[C@@H](Cc1ccccc1)B(O)O)[C@H](Cc1cccc2ccccc12)NC(=O)N1CCOCC1
measurement_target: HL-60
qualitative_label: 1
//
compound: COc1cc(C2c3cc4c(cc3OC(N3CCCC3)C2C)OCO4)cc(OC)c1O (stereo not given)
measurement_target: HL-60
qualitative_label: 0
//
compound: CC1OC(OC2C[C@](O)(C(=O)CF)Cc3c(O)c4c(c(O)c32)C(=O)c2ccccc2C4=O)CC(N)C1O (stereo not given in full)
measurement_target: HL-60
qualitative_label: 1
//
compound: Cc1ccnc2nc(-c3ccc(F)cc3)cc(O)c12
measurement_target: HL-60
qualitative_label: 0
//
compound: c1ccc(/N=C(/Nc2ccccc2)N2CCCCC2)cc1
measurement_target: HL-60
qualitative_label: 0
//
compound: CCOc1cc2c(c(OCC)c1O)CC[C@@H]1[C@@H]2CC[C@]2(C)[C@@H](O)CC[C@@H]12
measurement_target: HL-60
qualitative_label: 1
//
compound: c1ccc(COC2C3COC(O3)C(OCc3ccccc3)C2OCc2ccccc2)cc1 (stereo not given)
measurement_target: HL-60
qualitative_label: 0
//
compound: COC(=O)/C(=C(\C)NC(C)=O)c1c(C(=O)OC)[nH]c2ccccc12
measurement_target: HL-60
qualitative_label: 0
//
compound: NCCCNCCCCN1CCOC1=O
measurement_target: HL-60
qualitative_label: 0

Reference source: ChEMBL document CHEMBL1201862
